Attribute: microsomal CLint at 0.5 uM
assay: In vitro intrinsic clearance in microsomes, cynomolgus monkey; type: in vitro ADME; conditions: pH 7.4; Assay 3; cynomolgus monkey female microsomes, 0.5 uM compound, 0.5 mg/mL protein, 37° C.

Some molecules with known microsomal CLint at 0.5 uM results, for comparison:
>>> experimental_result("CC[C@H](C)[C@@H]1C(=O)N[C@H](C2Cc3ccccc3C2)C(=O)N1[C@@H](C(=O)N1CCOCC1)c1cnc(C)cc1C")
"16 to 20 mL/min/g"
>>> experimental_result("CC[C@H](C)[C@@H]1C(=O)N[C@H](C2Cc3ccccc3C2)C(=O)N1[C@@H](C(=O)N1CCOCC1)c1ccc(C)nc1C")
"1 to 8 mL/min/g"

Request: What does the data say about its microsomal CLint at 0.5 uM? Entry: CC[C@H](C)[C@@H]1C(=O)N[C@H](C2Cc3ccccc3C2)C(=O)N1[C@@H](C(=O)NC)c1ccc(C)nc1C
Response: 1 to 8 mL/min/g

Request: # get_value(readout='microsomal CLint at 0.5 uM', item= CC[C@H](C)[C@@H]1C(=O)N[C@H](C2Cc3ccccc3C2)C(=O)N1[C@@H](C(=O)NC)c1cnc(C)cc1C )
Response: 16 to 20 mL/min/g

----------
target: human recombinant oxytocin receptors (Homo sapiens, UniProt P30559); assay: Oxytocin binding assay ([3H]-oxytocin, CHO cell membranes); details: Assay 2, Ki from IC50 by Cheng and Prusoff
Sequence (P30559 whole entry): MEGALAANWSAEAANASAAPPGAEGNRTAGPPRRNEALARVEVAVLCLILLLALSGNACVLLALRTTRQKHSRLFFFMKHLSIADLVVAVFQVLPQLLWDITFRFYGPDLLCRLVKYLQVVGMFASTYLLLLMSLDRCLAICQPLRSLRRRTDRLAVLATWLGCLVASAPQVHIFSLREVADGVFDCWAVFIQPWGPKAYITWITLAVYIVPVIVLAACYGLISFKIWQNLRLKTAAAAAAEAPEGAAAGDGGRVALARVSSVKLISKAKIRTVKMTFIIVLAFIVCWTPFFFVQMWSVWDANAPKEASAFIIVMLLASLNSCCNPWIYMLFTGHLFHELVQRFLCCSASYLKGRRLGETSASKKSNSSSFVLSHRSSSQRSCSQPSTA
parameter: Ki

Request: I would be grateful if you could share the reported Ki for Cc1ccc([C@H](C(=O)N(C)C)N2C(=O)[C@@H](C3Cc4ccccc4C3)NC(=O)[C@H]2CC(C)C)cn1 [Comparator X, reference compound] .
Response: 0.0316 to 1.58 nM

----------
biological target: recombinant human Oxytocin-1 (hOT) receptor (Homo sapiens); assay: Antagonist affinity at human Oxytocin-1 receptors using FLIPR ([Ca2+]i); conditions: Assay 1, CHO-hOT cells, oxytocin at EC80, read-out: fpKi
pKi: −log10 of the molar value.
parameter: pKi

Request: Reported pKi for Cc1ccc([C@H](C(=O)N(C)C)N2C(=O)[C@@H](C3Cc4ccccc4C3)NC(=O)[C@H]2CC(C)C)cn1 [Comparator X, reference compound] : what is it?
Response: 8.10 to 9.20

This collection of values is drawn from patent US9408851B2.
